This collection of values is drawn from PubChem BioAssay.

Assay Target: Left-right determination factor 2 (Homo sapiens)
Method: LEFTY2 binders on small-molecule microarrays, primary screen, biochemical, small-molecule microarray, 635 nm fluorescence scan (AID 1110)
Run Parameters: LEFTY2 binding, higher = more signal

[
  {
    "Compound": "O=C1C[C@@H](O)[C@@H](O)[C@@H]2[C@@H]3C(=O)N(c4cccc(Oc5ccccc5)c4)C(=O)[C@@H]3CC[C@@H]12",
    "composite z-score": 0.962
  },
  {
    "Compound": "CO[C@@H]1COC(=O)CC=C[C@@H](C)[C@@H]2C=C[C@H](O)[C@@H](COC(=O)[C@H](C)NC(=O)CC=C[C@H]1C)O2",
    "composite z-score": 0.433
  },
  {
    "Compound": "O=C1c2ccccc2[C@@]2(Cc3ccccc3N(C3CC3)C2=O)[C@H](c2ccc(CO)cc2)N1Cc1ccccc1C(F)(F)F",
    "composite z-score": -1.18
  },
  {
    "Compound": "CCOC(=O)NN=C1C[C@@H](O)[C@@H](O)[C@@H]2[C@@H]3C(=O)N(CC)C(=O)[C@@H]3CC[C@@H]12",
    "composite z-score": 0.651
  },
  {
    "Compound": "CS(=O)(=O)CCOC(=O)C1=CC(CCCO)=CC(c2cccs2)N(Cc2cccc(OC(F)(F)F)c2)C=C1C(=O)OCCS(C)(=O)=O (configuration not stated)",
    "composite z-score": -0.224
  },
  {
    "Compound": "CO[C@H]([C@@H](C)[C@H](OC)c1ccccc1)[C@H](C)[C@@H](OC)[C@H](C)C(C)=O",
    "composite z-score": 0.402
  },
  {
    "Compound": "O=C1[C@H]2[C@H]3[C@H](O)[C@H](O)CC(=NO[C@@H]4O[C@H](CO)[C@@H](O)[C@H](O)[C@H]4O)[C@H]3CC[C@H]2C(=O)N1Cc1ccccc1",
    "composite z-score": 0.652
  }
]

###

Assay Target: Follistatin (Homo sapiens) (UniProt P19883)
Sequence (P19883 whole entry, looked up): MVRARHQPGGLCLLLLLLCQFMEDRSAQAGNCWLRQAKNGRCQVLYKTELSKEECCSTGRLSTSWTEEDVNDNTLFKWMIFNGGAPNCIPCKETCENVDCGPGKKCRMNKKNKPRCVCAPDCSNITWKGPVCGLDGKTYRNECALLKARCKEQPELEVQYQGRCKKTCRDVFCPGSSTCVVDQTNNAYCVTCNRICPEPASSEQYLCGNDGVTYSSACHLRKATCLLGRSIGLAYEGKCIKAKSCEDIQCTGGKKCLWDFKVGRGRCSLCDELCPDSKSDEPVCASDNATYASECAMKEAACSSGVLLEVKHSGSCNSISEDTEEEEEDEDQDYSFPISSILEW
Method: follistatin binders on small-molecule microarrays, primary screen, biochemical, small-molecule microarray, 635/667 nm fluorescence (AID 1132)
Run Parameters: FST binding, 635 nm fluorescence, higher = more signal
Attribute Measured: composite z-score

[
  {
    "Molecule": "CN1C(=O)C2C(C1=O)C1C=C(CCCO)C2C(c2ccc(CN3CCCC3)cc2)N1C (centres undefined)",
    "Value Reported": -0.227
  },
  {
    "Molecule": "C=CC[C@]1(C(=O)NCc2ccccc2)N=C(c2ccc(OCCCO)cc2)O[C@H]1c1ccccc1",
    "Value Reported": 0.431
  },
  {
    "Molecule": "CCCNC(=O)[C@@H]1c2ccccc2C(=O)N(Cc2ccccc2Cl)[C@H]1c1ccc(CO)cc1",
    "Value Reported": 1.36
  },
  {
    "Molecule": "COc1ccc([Si](C)(C)[C@@H]2[C@@H](CC(=O)N3CCC[C@H]3CO)O[C@]3(C(=O)N(Cc4cccc(N5CCC5=O)c4)c4ccccc43)[C@H]2C)cc1",
    "Value Reported": 0.907
  },
  {
    "Molecule": "CO[C@H]1COC(=O)CC=C[C@H](C)[C@@H](NS(=O)(=O)c2ccc(C)cc2)COC(=O)CC=C[C@@H]1C",
    "Value Reported": 0.932
  },
  {
    "Molecule": "CC(C)C[C@@H]1NC(=O)[C@H]2C[C@@H](C(=O)NCCCCCCN(C)C)[C@@H](c3cccc(OCCO)c3)N2C1=O",
    "Value Reported": 1.3
  },
  {
    "Molecule": "CC(=O)OC[C@H]1O[C@@H](ON=C[C@@H](C)[C@H](OCc2ccccc2)C(C)C)[C@H](OC(C)=O)[C@@H](OC(C)=O)[C@@H]1OC(C)=O",
    "Value Reported": -1
  },
  {
    "Molecule": "CCCNC(=O)OC[C@H]1O[C@H](CCON=C2[C@H]3CCn4c(=O)n(-c5ccccc5)c(=O)n4[C@H]3[C@H](O)[C@@H]3O[C@H]23)C=C[C@@H]1Oc1ccc(OC)cc1",
    "Value Reported": 0.146
  },
  {
    "Molecule": "CC(=O)OC[C@H]1O[C@H](CCON=C(C)CCC(=O)OC[C@H]2O[C@H](C#Cc3ccccc3)C=C[C@@H]2Oc2ccc(C)cc2)C=C[C@@H]1OC(C)=O",
    "Value Reported": 0.496
  },
  {
    "Molecule": "O=C1[C@H]2[C@H]3[C@H](O)[C@H](O)CC(=NOCc4ccccc4)[C@H]3CC[C@H]2C(=O)N1C[C@@H]1CCCO1",
    "Value Reported": 0.393
  },
  {
    "Molecule": "C[C@H](c1ccccc1)N1C(=O)[C@H]2[C@@H]3C(=CC[C@H]2C1=O)C(=O)[C@H]1O[C@H]1[C@H]3O",
    "Value Reported": 0.642
  },
  {
    "Molecule": "CC(C)C[C@@H]1NC(=O)[C@H]2C[C@@H](C(=O)O)[C@@H](c3ccc(O)cc3)N2C1=O",
    "Value Reported": 1.34
  },
  {
    "Molecule": "O=C1[C@H]2[C@H]3[C@H](O)[C@H](O)CC(=NO[C@@H]4O[C@H](CO)[C@@H](O)[C@H](O)[C@H]4O)[C@H]3CC[C@H]2C(=O)N1C1CCCCC1",
    "Value Reported": -0.384
  },
  {
    "Molecule": "CCOC(=O)C[C@H]1[C@H](OC(=O)c2cc3ccccc3oc2=O)[C@@H](NC(=O)c2ccc3ccccc3n2)c2cc(OCCCO)ccc2N1C(=O)c1ccccc1",
    "Value Reported": 1.14
  }
]

###

z-score values by entry
Method: MM1S myeloma cell viability, profiling panel, resazurin fluorescence, basal, 24 h, PK04 Diversity Set (AID 1174);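 note: MM1S multiple myeloma cell line; test concentration not given here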
Run Parameters: higher = more signal, called active from +8 up or from −8 down
Attribute Measured: z-score

[
  {
    "Compound": "CCOC(=O)[C@H](Cc1ccccc1)NC(=O)CCC1CC(OC(=O)NCc2ccc3c(c2)OCO3)CC2(CCCC(COC(=O)NCc3ccccc3)O2)O1 (some centres not stated)",
    "Value Reported": 0.637
  },
  {
    "Compound": "C=COC[C@H]1CN2[C@@H](CC[C@@H](C)[C@@H]2c2ccc(Br)cc2)C(=O)O1",
    "Value Reported": 0.255
  },
  {
    "Compound": "CCOC(=O)NN=C1C[C@@H](O)[C@@H](O)[C@@H]2[C@@H]3C(=O)N(C[C@@H]4CCCO4)C(=O)[C@@H]3CC[C@@H]12",
    "Value Reported": -0.307
  },
  {
    "Compound": "COCCOC(=O)N1C(=O)[C@@]2(c3cc(C#CC4(O)CCCCCC4)ccc31)[C@H](c1ccc(OCCO)cc1)N1[C@H](c3ccccc3)[C@H](c3ccccc3)OC(=O)[C@H]1[C@@H]2C(=O)NC[C@H](O)c1ccccc1",
    "Value Reported": -0.596
  },
  {
    "Compound": "COC(=O)C1=C(C)N(Cc2ccccc2)[C@]23O[C@](C(=O)OC)(C(=O)N2[C@@H]1c1ccccc1)[C@H]1CCOC(=O)[C@H]13",
    "Value Reported": 0.444
  },
  {
    "Compound": "CCCNC(=O)[C@@H]1c2ccccc2C(=O)N(c2ccc(C)cn2)[C@H]1c1ccc(CO)cc1",
    "Value Reported": -0.472
  },
  {
    "Compound": "O=C1O[C@@H](c2ccccc2)[C@@H](c2ccccc2)N2[C@@H](c3ccc(O)cc3)[C@]3(C(=O)Nc4ccccc43)[C@@H](C(=O)O)[C@H]12",
    "Value Reported": -0.14
  }
]
